System: ventricular fibrillation
Test summary: Antiarrhythmic action against chloroform in mice (suppression of ventricular fibrillation)
Format: in vivo
Stated conditions: Mus musculus, 20 min, 100 mg/kg, 20 minutes before chloroform, read-out: Rate of suppression (%) of ventricular fibrillation
Counter-ions that a name gives are not always drawn.
Below, each of the molecules is paired with its reported inhibition in vivo at 100 mg/kg value.
API: value field is a number in %; no unit string.

Field: example entries. Status: answers known.
molecule="Cc1cc2c(c3c1NC(=O)C3(C)C)OC(CN(C)C)C2 (stereo not shown)" assay_system="ventricular fibrillation" parameter_measured="inhibition in vivo at 100 mg/kg" value_unit=% result_number=100
molecule="CCOC(=O)c1cc2c3c(ccc2[nH]1)CC(CN)O3 (stereo not shown)" assay_system="ventricular fibrillation" parameter_measured="inhibition in vivo at 100 mg/kg" value_unit=% result_number=90
molecule="Cc1cc2c(c3c1NC(=S)C3(C)C)O[C@@H](CN)[C@@H]2C (relative stereo)" assay_system="ventricular fibrillation" parameter_measured="inhibition in vivo at 100 mg/kg" value_unit=% result_number=100
molecule="Cc1cc2c(c3c1NC(=O)C3(C)C)OC(CNCc1ccccc1)C2 (stereo not shown)" assay_system="ventricular fibrillation" parameter_measured="inhibition in vivo at 100 mg/kg" value_unit=% result_number=100
molecule="CCCCc1cc2c(c3c1NC(=O)C3(C)C)OC(CN)C2 (stereo not shown) [Example 28 (9)HCl]" assay_system="ventricular fibrillation" parameter_measured="inhibition in vivo at 100 mg/kg" value_unit=% result_number=90

Prompt: inhibition in vivo at 100 mg/kg for CCCCCCc1cc2c(c3c1NC(=O)C3(C)C)OC(CN)C2 (stereo not shown) ?
Completion: 100

Prompt: inhibition in vivo at 100 mg/kg for Cc1cc2c(c3c1NC(=O)C3(C)C)OC(Cn1ccnc1)C2 (stereo not shown) ?
Completion: 90
